Data origin, for the record: patent US20250034256A1

# koff listing for each entry below
target: T1, Histidine-tagged human PD-1 protein (hPD-1-His) (human, UniProt Q15116 25-170, limits assumed); assay: SPR (Biacore T200), antibody captured on Protein A chip, hPD-1-His analyte, 1:1 fit
T1 construct: Soluble analyte in SPR; not shown: histidine tag
T1 sequence (Q15116 25-170 limits assumed): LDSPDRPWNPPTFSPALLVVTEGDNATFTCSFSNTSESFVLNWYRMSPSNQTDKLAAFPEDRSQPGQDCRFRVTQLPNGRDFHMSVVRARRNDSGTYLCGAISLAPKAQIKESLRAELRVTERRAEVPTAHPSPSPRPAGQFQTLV
Use s⁻¹ as the unit, but write only the number.

// worked examples, koff included
Sure, the documented koff for 1A7-H2K2-IgG4-S228P (antibody, V domains shown, Humanized; human IgG4 constant domains with S228P (EU numbering)) VH: EVQLVESGGGLVQPGGSLRLSCAASGFTFSSYSMSWVRQAPGKRLEWVAHISSGGSSTYYPDTVKGRFTISRDNSKNTLYLQMNSLRAEDTAMYYCTRQFYYGSSFWYFDVWGAGTTVTVSS VL: DNVLTQSPATLSVSPGERATLSCKASQSVDFDGDSYMNWYQQKPGQPPRLLIYAASNLESGIPARFSGSGPGTDFTLTISSLEPEDFATYYCQQSNEDPPTFGGGTKVEIK is 0.00282

So for 1A7-H1K2-IgG4-S228P (antibody, V domains shown, Humanized; human IgG4 constant domains with S228P (EU numbering)) VH: EVQLLESGGGLVQPGGSLRLSCAASGFTFSSYSMSWVRQAPGKRLEWVAHISSGGSSTYYPDTVKGRFTISRDNSKNTLYLQMNSLRAEDTAMYYCTRQFYYGSSFWYFDVWGQGTTVTVSS VL: DNVLTQSPATLSVSPGERATLSCKASQSVDFDGDSYMNWYQQKPGQPPRLLIYAASNLESGIPARFSGSGPGTDFTLTISSLEPEDFATYYCQQSNEDPPTFGGGTKVEIK , the logged koff turned out to be 0.00265

// koff lookup, binder = 3F1-H1K2-IgG4-S228P (antibody, V domains shown, Humanized; human IgG4 constant domains with S228P (EU numbering)) VH: QVQLQQSGAEVKKPGASVKMSCKASGYTFTSYWMHWVRQAPGQGLEWIGYINPSTGYTEYNQKFKDRATLTADTSTSTAYMELSSLRSEDTAVYYCARGVRYYFDYWGQGTLVTVSS VL: DIVMTQSPDSLAVSLGERATMSCKSSQSLLNSRTRKNYLAWYQQKPGQSPKLLIYWASTRESGVPDRFSGSGSGTDFTLTISSVQAEDVAVYYCKQSYNLLTFGQGTKLELK , result: 0.00155

Others:
Reported koff of 1A7-H3K1-IgG4-S228P (antibody, V domains shown, Humanized; human IgG4 constant domains with S228P (EU numbering)) VH: EVKLVESGGGLVQPGGSLRLSCAASGFTFSSYSMSWVRQAPGKRLEWVAHISSGGSSTYYPDTVKGRFTISRDNSKNTLYLQMNSLRAEDTAMYYCTRQFYYGSSFWYFDVWGAGTTVTVSS VL: DNVLTQSPATLSLSPGERATLSCKASQSVDFDGDSYMNWYQQKPGQPPRLLIYAASNLESGIPARFSGSGPGTDFTLTISSLEPEDFATYYCQQSNEDPPTFGGGTKVEIK : 0.00264

Entry 3F1-H3K1-IgG4-S228P (antibody, V domains shown, Humanized; human IgG4 constant domains with S228P (EU numbering)) VH: QVQLQQSGAEVAKPGASVKMSCKASGYTFTSYWMHWVKQRPGQGLEWIGYINPSTGYTEYNQKFKDRATLTADTSTSTAYMELSSLRSEDTAVYYCARGVRYYFDYWGQGTLLTVSS VL: DIVMTQSPDSLAVSLGERATISCKSSQSLLNSRTRKNYLAWYQQKPGQSPKLLIYWASTRESGVPDRFSGSGSGTDFTLTISSVQAEDVAVYYCKQSYNLLTFGQGTKLELK — recorded koff = 0.00179
